Hello, the source for this data is PubChem BioAssay (NCI), in case you need it.

# Tested on: EKVX NSCLC
# test details: NCI tumour cell line growth inhibition, 48 h
experimental readout: TGI

Please give the measured TGI for this compound: C#CCNC(=O)NCCCCC(NC(C)=O)C(=O)NCc1ccccc1 (stereo unspecified)
> 100 µM

Try ClCc1ccc(Cn2cnc3c(Cl)ncnc32)cc1 next.
19.5 µM

Try COc1ccccc1-n1c(NN)nc2ccc(Br)cc2c1=O next.
> 100 µM

Try CN(C)C(=O)OC1=CC2CCC(C1)N2C (stereo unspecified) next.
> 100 µM

Try CCOC(=O)c1c(-c2cccc(Cl)c2)c(C(=O)OC)c(C)c2sc(C=O)nc12 next.
31.9 µM

Try CCN(CC)CCCNc1ccc([N+](=O)[O-])c2nc3ccc(OC)cc3c(N)c12 next.
> 10 µM

Try CCN(CC)c1ccc(C2Nc3ccc4ccccc4c3C3=C2C(=O)CCC3)cc1 (stereo unspecified) next.
> 100 µM

Try COc1cccc(/C=N/[N-]C(N)=O)c1[O-].[Ni+2].[OH3+] next.
2.57 µM

Try NC(=O)C(=CNC(=S)Nc1ccc(S(=O)(=O)Nc2ccccn2)cc1)C(N)=O next.
> 100 µM

Try COc1ccc(NC(=O)CC(=O)NNC(Sc2ccccc2)c2cc(N=Nc3ccc(Br)cc3)ccc2O)cc1 (stereo unspecified) next.
> 10 µM

Try Cc1cc2ccc(OC(=O)c3ccc(N=C(N)N)cc3)cc2oc1=O next.
> 100 µM
